# measurement_target: T1, recombinant human HER2 extracellular domain protein (human, UniProt P04626 23-652)
# T1 construct: range 23-652; Range is printed for the immunogen/panning protein; also called ErbB2; recombinant HER2 protein
# test_description: BLI, Protein A capture
Exercise: for every item that follows, state its recorded log10 of koff.
For clarity, the numbers are log10 values of koff expressed in s⁻¹.

Entry 2126-Hu-H47 (antibody, IgG1, name in Kabat numbering, V domains shown, IgG1/Cκ) VH: QVQLVQSGSELKKPGASVKVSCKASGYTFTDYSMHWVRQAPGQGLEWMGWINTETGEPTYADDFKGRFVFSLDTSVSTAYLQISSLKAEDTAVYFCVRVGFYDYAMDYWGQGTTVTVSS VL: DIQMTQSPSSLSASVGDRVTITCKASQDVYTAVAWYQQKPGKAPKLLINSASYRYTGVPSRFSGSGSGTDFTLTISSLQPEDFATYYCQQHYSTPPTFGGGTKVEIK — recorded log10 of koff = -2.44

2126-Hu-H53 (antibody, IgG1, name in Kabat numbering, V domains shown, IgG1/Cκ) VH: QVQLVQSGSELKKPGASVKVSCKASGYTFTDYSMHWVRQAPGQGLEWMGWINTETGEPTYADDFKGRFVFSLDTSVSTAYLQISSLKAEDTAVYFCVRVGRNDYAMDYWGQGTTVTVSS VL: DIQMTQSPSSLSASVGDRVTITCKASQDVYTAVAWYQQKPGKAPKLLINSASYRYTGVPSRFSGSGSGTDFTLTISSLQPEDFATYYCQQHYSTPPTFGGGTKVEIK has a reported log10 of koff of -2.32

Lab book: log10 of koff of 2126-Hu-H30 (antibody, IgG1, name in Kabat numbering, V domains shown, IgG1/Cκ) VH: QVQLVQSGSELKKPGASVKVSCKASGYTFTDYSMHWVRQAPGQGLEWMGWINTETGNPTYADDFKGRFVFSLDTSVSTAYLQISSLKAEDTAVYFCVRVGRYDYAMDYWGQGTTVTVSS VL: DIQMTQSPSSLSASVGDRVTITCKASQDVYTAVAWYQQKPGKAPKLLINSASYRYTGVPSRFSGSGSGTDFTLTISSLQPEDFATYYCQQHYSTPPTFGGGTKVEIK noted as -2.82

log10 of koff for 2126-Hu-H22 (antibody, IgG1, V domains shown, IgG1/Cκ) VH: QVQLVQSGGELKKPGASVKVSCKASGYTFTDYSMHWVRQAPGQGLEWMGWINTETGEPTYADDFKGRFVFSLDTSVSTAYLQISSLKAEDTAVYFCVRVGRYDYAMDYWGQGTTVTVSS VL: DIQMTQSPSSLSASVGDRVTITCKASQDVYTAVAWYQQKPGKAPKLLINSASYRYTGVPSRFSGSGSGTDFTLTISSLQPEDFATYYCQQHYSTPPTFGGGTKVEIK is -3.27

For reference, reported log10 of koff for 2126-Hu-H38 (antibody, IgG1, V domains shown, IgG1/Cκ) VH: QVQLVQSGSELKKPGASVKVSCKASGYTFTDYSMHWVRQAPGQGLEWMGWINTETGEPTYADDFKGRFVISLDTSVSTAYLQISSLKAEDTAVYFCVRVGRYDYAMDYWGQGTTVTVSS VL: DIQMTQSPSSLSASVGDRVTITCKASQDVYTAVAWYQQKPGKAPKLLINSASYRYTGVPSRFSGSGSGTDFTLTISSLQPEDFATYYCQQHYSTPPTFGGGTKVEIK stands at -3.06

// log10 of koff lookup, binder = 2126-Hu-H28 (antibody, IgG1, V domains shown, IgG1/Cκ) VH: QVQLVQSGSELKKPGASVKVSCKASGYTFTDYSMHWVRQAPGQGLEWMGWINTYTGEPTYADDFKGRFVFSLDTSVSTAYLQISSLKAEDTAVYFCVRVGRYDYAMDYWGQGTTVTVSS VL: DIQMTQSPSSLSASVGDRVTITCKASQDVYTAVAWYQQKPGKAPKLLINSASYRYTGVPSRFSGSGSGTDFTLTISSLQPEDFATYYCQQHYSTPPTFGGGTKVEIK , result: -3.46

Entry 2126-Hu-H39 (antibody, IgG1, V domains shown, IgG1/Cκ) VH: QVQLVQSGSELKKPGASVKVSCKASGYTFTDYSMHWVRQAPGQGLEWMGWINTETGEPTYADDFKGRFVFSVDTSVSTAYLQISSLKAEDTAVYFCVRVGRYDYAMDYWGQGTTVTVSS VL: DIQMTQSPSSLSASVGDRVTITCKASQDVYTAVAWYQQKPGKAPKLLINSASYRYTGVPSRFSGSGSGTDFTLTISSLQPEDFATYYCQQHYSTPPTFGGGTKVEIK ; log10 of koff = -3.29

Value of measured log10 of koff for the entry 2126-Hu-H52 (antibody, IgG1, name in Kabat numbering, V domains shown, IgG1/Cκ) VH: QVQLVQSGSELKKPGASVKVSCKASGYTFTDYSMHWVRQAPGQGLEWMGWINTETGEPTYADDFKGRFVFSLDTSVSTAYLQISSLKAEDTAVYFCVRVGRSDYAMDYWGQGTTVTVSS VL: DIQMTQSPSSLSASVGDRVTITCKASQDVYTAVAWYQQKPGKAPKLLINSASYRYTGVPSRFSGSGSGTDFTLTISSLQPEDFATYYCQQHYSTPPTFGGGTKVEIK : -2.53

Reported log10 of koff for 2126-Hu-H49 (antibody, IgG1, name in Kabat numbering, V domains shown, IgG1/Cκ) VH: QVQLVQSGSELKKPGASVKVSCKASGYTFTDYSMHWVRQAPGQGLEWMGWINTETGEPTYADDFKGRFVFSLDTSVSTAYLQISSLKAEDTAVYFCVRVGNYDYAMDYWGQGTTVTVSS VL: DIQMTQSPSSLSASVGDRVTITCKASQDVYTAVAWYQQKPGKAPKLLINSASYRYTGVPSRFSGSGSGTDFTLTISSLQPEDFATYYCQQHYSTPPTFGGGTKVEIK was -2.27

Input 2126-Hu-L12 (antibody, IgG1, V domains shown, IgG1/Cκ) VH: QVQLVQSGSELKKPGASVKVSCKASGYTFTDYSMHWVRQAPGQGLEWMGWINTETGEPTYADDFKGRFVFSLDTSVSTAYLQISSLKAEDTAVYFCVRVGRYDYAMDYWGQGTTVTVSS VL: DIQMTQSPSSLSASVGDRVTITCKASQDVYTAVAWYQQKPGKAPKLLINSASSRYTGVPSRFSGSGSGTDFTLTISSLQPEDFATYYCQQHYSTPPTFGGGTKVEIK . Output log10 of koff: -3.21

Reference for the values: patent EP4725969A1
